assay: qHTS for Inhibitors of the Functional Ribonucleoprotein Complex (vRNP) of Lymphocytic Choriomeningitis Arenaviruses (LCMV): Viability assay - alamar blue signal for LCMV Primary Screen (AID 1347085); conditions: alamar blue viability counter-screen, LCMV vRNP screen cells; series mostly up to 57.5 µM; also: nearly all actives have a fitted effect of over 80% in size
Results filed as inconclusive are left out. Active and inactive are the calls of the source. Calls follow the shape of the full dose curve; tested in HEK293 reporter line.
Respond with a class label; see active, inactive

compound	answer.label
Cc1ccc(-c2ncn(-c3ccc(Nc4nccc(-c5cccc(N6CCOCC6)c5)n4)cc3)n2)cn1	active

API: the following record is the query input.
Ask: Outcome? CCCC[N+]1(C)[C@H]2CC(OC(=O)[C@H](CO)c3ccccc3)C[C@H]1[C@H]1O[C@H]12 (stereo not given in full)
Result: inactive

====

target: Ubiquitin carboxyl-terminal hydrolase 2 (Homo sapiens) (UniProt O75604); assay: qHTS Validation Assay for Inhibitors of Ubiquitin-specific Protease USP2a Using CHOP2 as the Reporter (AID 463106); settings: USP2a cleavage of CHOP2 reporter, enzymatic; series mostly up to 38.3 µM;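 also: plate controls were DMSO for no effect and full inhibition by NEM for full effect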
Sequence (O75604 whole entry, looked up): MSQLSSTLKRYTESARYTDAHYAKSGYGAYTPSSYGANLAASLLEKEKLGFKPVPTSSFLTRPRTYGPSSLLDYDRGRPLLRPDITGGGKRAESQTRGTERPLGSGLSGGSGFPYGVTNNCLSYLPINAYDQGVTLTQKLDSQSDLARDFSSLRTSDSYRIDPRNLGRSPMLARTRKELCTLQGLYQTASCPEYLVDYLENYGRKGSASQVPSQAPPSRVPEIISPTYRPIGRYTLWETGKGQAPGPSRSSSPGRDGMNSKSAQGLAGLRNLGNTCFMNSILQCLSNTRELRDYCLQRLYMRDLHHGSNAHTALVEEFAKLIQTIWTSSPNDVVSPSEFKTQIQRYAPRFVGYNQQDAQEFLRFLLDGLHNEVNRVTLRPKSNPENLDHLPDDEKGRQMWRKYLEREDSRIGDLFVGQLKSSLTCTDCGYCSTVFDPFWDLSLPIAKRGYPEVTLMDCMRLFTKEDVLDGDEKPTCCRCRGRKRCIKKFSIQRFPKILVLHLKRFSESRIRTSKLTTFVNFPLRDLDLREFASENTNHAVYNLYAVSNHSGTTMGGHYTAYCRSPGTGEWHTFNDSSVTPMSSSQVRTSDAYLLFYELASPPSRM
Records with an inconclusive call do not appear. Calls of active or inactive are those of the source. The call rests on the fitted dose curve; in most records, active means well fitted inhibition curve with a large enough effect; inconclusive means small, poorly fitted or top-dose-only effect, or effect the other way; inactive means flat fitted curve, though single readings scatter.
reported.endpoint: outcome

compound	system.name	outcome
CCCN(CCC)C1CCc2ccc(O)cc2C1 (configuration not stated)	Ubiquitin carboxyl-terminal hydrolase 2 (Homo sapiens) (UniProt O75604)	inactive
CC(C)Oc1cccnc1N(C)C1CCN(Cc2ccccc2)CC1	Ubiquitin carboxyl-terminal hydrolase 2 (Homo sapiens) (UniProt O75604)	inactive
c1ccc(CCCN2CCN(CCOC(c3ccccc3)c3ccccc3)CC2)cc1	Ubiquitin carboxyl-terminal hydrolase 2 (Homo sapiens) (UniProt O75604)	inactive
c1ccc2sc(C3(N4CCCCC4)CCCCC3)cc2c1	Ubiquitin carboxyl-terminal hydrolase 2 (Homo sapiens) (UniProt O75604)	inactive
COc1ccc2c(c[n+](C)c3c4cc5c(cc4ccc23)OCO5)c1OC	Ubiquitin carboxyl-terminal hydrolase 2 (Homo sapiens) (UniProt O75604)	inactive

Ask: Entry C[C@]12N[C@H](Cc3ccccc31)c1ccccc12 : reported outcome = ?
Result: inactive

Ask: Entry C[N+]1(C)C2CCC1CC(OC(=O)C(CO)c1ccccc1)C2 (configuration not stated) : reported outcome = ?
Result: inactive

Ask: Entry CC(C)NC(C)Cc1ccc(I)cc1 (configuration not stated) : reported outcome = ?
Result: inactive

====

assay: qHTS of pediatric cancer cell lines to identify multiple opportunities for drug repurposing: Confirmatory screen for OHS-50 cells (AID 1347128); conditions: OHS-50 osteosarcoma cells viability; series mostly up to 45.9 µM;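 also: compound exposure lasted 48 h at 37 degrees C; nearly all actives have a fitted effect of over 55% in size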
Records with an inconclusive call do not appear. The source made the active and inactive calls. Calls come from the whole dose curve; as a rule, active = well fitted cell-killing curve with a large enough effect; inconclusive = small, poorly fitted or top-dose-only effect, or effect the other way; inactive = no such curve, though single readings can be large or run the other way.
Respond with a class label; see 1.0 for active, 0.0 for inactive

compound	answer.label
COc1cc([C@@H]2c3cc4c(cc3[C@@H](O)C3COC(=O)C32)OCO4)cc(OC)c1O (stereo partly drawn)	0.0
CC(=Cc1csc(C)n1)[C@@H]1C[C@H]2O[C@@H]2CCC[C@H](C)[C@@H](O)[C@@H](C)C(=O)C(C)(C)[C@@H](O)CC(=O)O1	1.0
Cc1ccccc1-n1c(Cn2cnc3c(N)ncnc32)nc2cccc(C)c2c1=O	0.0
O=C1C(I)=CC(=C(c2cc(I)c(O)c(I)c2)c2ccccc2C(=O)O)C=C1I	0.0
CC[C@H]1C=CC=CC[C@@H](C)[C@H](O)[C@@](C)(O)C(=O)[C@@H](C)[C@H](O)[C@@H](C)C(=O)[C@@H](C)[C@H](O)[C@@H](C)C=CC(=O)O[C@@H]2[C@@H](C)[C@H](CC1)O[C@]1(CC[C@H](C)[C@H](C[C@@H](C)O)O1)[C@H]2C	0.0
CC=C(C)C(=O)N[C@@H](c1ccccc1)[C@@H](O)C(=O)O[C@H]1C[C@@]2(O)[C@@H](OC(=O)c3ccccc3)[C@@H]3[C@]4(OC(C)=O)CO[C@@H]4C[C@H](O)[C@@]3(C)C(=O)[C@H](OC(C)=O)C(=C1C)C2(C)C	1.0

Ask: Outcome? Cc1c(C(=O)Nc2cccc(C(F)(F)F)c2)cc(-c2ccccc2)n1CCCN1CCOCC1
Result: 1.0

Ask: Outcome? Cc1c(N)nc([C@H](CC(N)=O)NC[C@@H](N)C(N)=O)nc1C(=O)N[C@H](C(=O)N[C@@H](C)[C@H](O)[C@@H](C)C(=O)N[C@@H](C(=O)NCCc1nc(-c2nc(C(=O)NCCC[S+](C)C)cs2)cs1)[C@@H](C)O)C(O[C@H]1O[C@H](CO)[C@H](O)[C@@H](O)[C@@H]1O[C@H]1O[C@H](CO)[C@@H](O)[C@H](OC(N)=O)[C@H]1O)c1cnc[nH]1 (stereo partly drawn)
Result: 0.0

====

test system: SC27B; assay: qHTS profiling for inhibitors of Plasmodium falciparum proliferation (AID 504749);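 also: 0% = DMSO vehicle and full inhibition = artemisinin control; nearly all actives have a fitted effect of over 60% in size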; settings: P. falciparum in erythrocytes, SYBR Green DNA, 72 h; series mostly up to 28.7 µM
Inconclusive results are not listed. Active and inactive are the calls of the source. Calls follow the shape of the dose curve; as a rule, active = well fitted inhibition curve with a large enough effect; inconclusive = small, poorly fitted or top-dose-only effect; inactive = flat fitted curve, though single readings scatter.
Respond with a class label; see active, inactive

Field: example entries. Status: answers known.
compound	system.name	answer.label
C=CCN1CC[C@]23CCCCC2[C@H]1Cc1ccc(O)cc13 (some centres not stated)	SC27B	inactive
CCCN1CCC[C@H](c2cccc(O)c2)C1	SC27B	inactive

API: the following record is the query input.
Ask: Outcome? Cc1cc(O)ccc1Cl
Result: inactive

====

Test system: NIH3T3
Test: Cytotoxic Profiling of Annotated Libraries Using Quantitative High-Throughput Screening (AID 1296008); also: % is scaled to controls: 0 for no effect and ±100 for the full control effect; nearly all actives have a fitted effect of over 60% in size
Conditions: Five cell lines viability, CellTiter-Glo ATP luminescence, 48-72 h; stronger effect = lower value
Experimental: Cell-based phenotypic screening is a commonly used approach to discover biological pathways, novel drug targets, chemical probes and high-quality hit-to-lead molecules. […] A pintool (Kalypsys) was used to transfer 23 nL of compound solution to the 1536-well assay plates. […] Plates were left at room temperature for 10 min before imaging the ATP-coupled luminescence using a ViewLux microplate imager (PerkinElmer, Waltham, MA).
Results filed as inconclusive are left out.
reported.endpoint: max response (%)
I only need the number, in %, no unit after it.

compound	max response [%]
C=C1C[C@H]2[C@H]3CCC(=O)[C@@]3(C)CC[C@@H]2[C@@]2(C)C=CC(=O)C=C12	-14.2
CC[C@@H](C(N)=O)N1CCCC1=O	1.04
CC(=Cc1csc(C)n1)[C@@H]1C[C@H]2O[C@@H]2CCC[C@H](C)[C@@H](O)[C@@H](C)C(=O)C(C)(C)[C@@H](O)CC(=O)O1	-77
O=C(Oc1ccc([N+](=O)[O-])cc1)N1CCN(Cc2cccc(Oc3ccccc3)c2)CC1	0.403
Cc1ccccc1-n1c(Cn2ncc3c(N)ncnc32)nc2cccc(C)c2c1=O	1.98
O=C(O)C(Cl)Cl	-3.68
C[C@]12CC[C@@H]3[C@@H](CCC4=CC(=O)CC[C@@H]43)[C@@H]1CC[C@@H]2OC(=O)CCc1ccccc1	-6.38
CCOCCOC(C)=O	-2.47
O=C(N[C@H]1CN2CCC1CC2)c1ccc(Cl)cc1	-6.97
O=C(O)COc1ccccc1	-0.908

Ask: API: value(readout=max response, system=NIH3T3) for record COc1ccc(CC2NCCc3cc(OC)c(OC)cc32)cc1OC (configuration not stated)
Result: -2.7

Ask: API: value(readout=max response, system=NIH3T3) for record O=[N+]([O-])c1c2ccccc2cc2ccccc12
Result: -10.2

Ask: API: value(readout=max response, system=NIH3T3) for record O=c1[nH]c2ccccc2n1C1CCN(Cc2ccc(-c3[nH]c4cc5ncnc5cc4nc3-c3ccccc3)cc2)CC1
Result: -3.31

Ask: API: value(readout=max response, system=NIH3T3) for record CC1(C)CC/C(=C/c2ccc(Cl)cc2)C1(O)Cn1cncn1 (configuration not stated)
Result: -11.7

Ask: API: value(readout=max response, system=NIH3T3) for record CCCC[N+]1(C)[C@H]2CC(OC(=O)[C@H](CO)c3ccccc3)C[C@H]1[C@H]1O[C@H]12 (some centres not stated)
Result: -3.27

Ask: API: value(readout=max response, system=NIH3T3) for record CCCCOC(=O)c1ccccc1C(=O)OCc1ccccc1
Result: -6.85

====

test system: MCC-26; assay: qHTS assay to identify novel small-molecules to repurpose for Merkel cell carcinoma treatment (AID 1296009); settings: MCC and control cell lines, CellTiter-Glo viability, 72 h; series mostly up to 46 µM; also: nearly all actives have a fitted effect of over 60% in size
Inconclusive results are not listed. The source made the active and inactive calls. Calls come from the whole dose curve; as a rule, active = well fitted inhibition curve with a large enough effect; inconclusive = small, poorly fitted or top-dose-only effect; inactive = flat fitted curve, though single readings scatter.
Respond with a class label; see active, inactive

Field: example entries. Status: answers known.
compound	answer.label
Fc1cc(Br)ccc1CBr	inactive
C#CC1(O)CCC2C3CCC4=CC(=O)CCC4(C)C3CCC21C (configuration not stated)	inactive
C[C@]12CCC(=O)C(O)=C1CC[C@@H]1[C@H]3CCC(=O)[C@@]3(C)CC[C@@H]12	inactive
COCC1(CO)C(=O)C2CCN1CC2 (configuration not stated)	inactive
COc1ccc2c(c1)CN(C)CC2c1ccc(Cl)c(Cl)c1 (configuration not stated)	inactive

Ask: Outcome? COC(=O)c1cncn1C(C)c1ccccc1 (configuration not stated)
Result: inactive

Ask: Outcome? N=c1c2c(-c3ccccc3)c(-c3ccccc3)n(Cc3ccccc3)c2ncn1C1CCC(O)CC1 (configuration not stated)
Result: inactive

Ask: Outcome? O=S(=O)(O)C(F)(F)C(F)(F)C(F)(F)C(F)(F)C(F)(F)C(F)(F)C(F)(F)C(F)(F)F
Result: inactive

Ask: Outcome? OCCCBr
Result: inactive

Ask: Outcome? CCCCCCCCCCCCCCCC[N+](C)(C)C
Result: active

Ask: Outcome? O=[N+]([O-])c1c(Cl)c(Cl)cc(Cl)c1Cl
Result: inactive

Ask: Outcome? CC(=O)OCC1=C(C(=O)O)N2C(=O)[C@@H](N)[C@@H]2SC1
Result: inactive
